# TESTED_TARGET: UniProt Q92769
# Sequence (Q92769 whole entry): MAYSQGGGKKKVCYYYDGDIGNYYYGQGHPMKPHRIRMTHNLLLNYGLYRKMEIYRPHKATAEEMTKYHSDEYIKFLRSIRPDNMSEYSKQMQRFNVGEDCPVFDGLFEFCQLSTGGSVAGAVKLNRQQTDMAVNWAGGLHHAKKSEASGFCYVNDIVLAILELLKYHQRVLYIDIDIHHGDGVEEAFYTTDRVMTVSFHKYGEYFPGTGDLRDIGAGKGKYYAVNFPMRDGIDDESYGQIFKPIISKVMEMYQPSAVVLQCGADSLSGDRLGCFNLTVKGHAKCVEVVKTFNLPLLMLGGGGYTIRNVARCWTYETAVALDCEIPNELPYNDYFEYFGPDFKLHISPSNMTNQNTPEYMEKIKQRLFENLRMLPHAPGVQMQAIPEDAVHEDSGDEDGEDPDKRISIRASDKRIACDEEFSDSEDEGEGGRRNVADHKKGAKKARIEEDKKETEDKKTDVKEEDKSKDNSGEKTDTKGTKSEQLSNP
# EXPERIMENTAL_DETAILS: HDAC enzyme assay, HDAC2
# CONDITION_DETAILS: read-out: HDAC2 IC50
PARAMETER: IC50 (nM)

Before answering, review these 10 worked examples.
[[record]]
compound = "O=C(NO)c1cnc(NC2(c3ccc(F)cc3)CC2)nc1 [Compound 81]"
unit_name = "nM"
measurement = 78

[[record]]
compound = "CC(C)(Nc1ncc(C(=O)NO)cn1)c1ccc(F)cc1F [Compound 70]"
unit_name = "nM"
measurement = 972

[[record]]
compound = "O=C(NO)c1cnc(NC2CCOCC2)nc1 [Compound 104]"
unit_name = "nM"
measurement = 1170

[[record]]
compound = "O=C(NO)c1cnc(Nc2cccc(-c3ccccc3)c2)nc1 [Compound 28]"
unit_name = "nM"
measurement = 187

[[record]]
compound = "O=C(NO)c1cnc(NC2(c3ccc(C(F)(F)F)cc3)CC2)nc1 [Compound 135]"
unit_name = "nM"
measurement = 118

[[record]]
compound = "O=C(NO)c1cnc(NCc2cccc(C(F)(F)F)c2)nc1 [Compound 40]"
unit_name = "nM"
measurement = 56

[[record]]
compound = "COc1ccccc1C1(Nc2ncc(C(=O)NO)cn2)CC1 [Compound 133]"
unit_name = "nM"
measurement = 483

[[record]]
compound = "COc1ccccc1CNc1ncc(C(=O)NO)cn1 [Compound 45]"
unit_name = "nM"
measurement = 523

[[record]]
compound = "O=C(NO)c1cnc(NCCc2cccc(Cl)c2)nc1 [Compound 42]"
unit_name = "nM"
measurement = 97

[[record]]
compound = "O=C(NO)c1cnc(NC2(c3ccc(F)cc3)CCCCC2)nc1 [Compound 100]"
unit_name = "nM"
measurement = 4760


[A] O=C(NO)c1cnc(NC2(Cc3ccccc3)CC2)nc1 [Compound 109]
[B] O=C(NO)c1cnc(NC2(c3ccccc3F)CC2)nc1 [Compound 82]
Higher IC50: A or B ? Refer to your chosen entry by its label in the reply.
A
